- Experiment description: Drug repurposing screens with cells derived from glioblastoma tumor samples (AID 1345199); note: nearly all actives have a fitted effect of over 40% in size
- Run parameters: GBM patient neurospheres viability, ATP luminescence, 48 h; at 45.9 µM (top of the series); tumour line B
Records with an inconclusive call do not appear.
Assign labels as follows, please: satisfied for activity, negative = cell killing below -10%; not satisfied for activity, negative = cell killing equal to or exceeding -10%.

Compound	Assigned label
O=C1CCC(c2ccccc2)(C2CCN(Cc3ccccc3)CC2)C(=O)N1 (stereo unspecified)	satisfied
C[Si](C)(C)O[Si](C)(C)C	not satisfied
CCCCC[C@H](O)/C=C/[C@H]1[C@H](O)CC(=O)[C@@H]1C/C=C\CCCC(=O)O	not satisfied
COc1ccc(C(=O)CCC(=O)O)c2ccccc12	not satisfied
CNC(=O)c1c(I)c(C(=O)NCC(=O)Nc2c(I)c(C(=O)O)c(I)c(C(=O)NCCO)c2I)c(I)c(N(C)C(C)=O)c1I	not satisfied
CCCc1ccc(C(=O)O)cc1	satisfied
O=C(Cc1cccs1)N[C@@H]1C(=O)N2C(C(=O)[O-])=C(C[n+]3ccccc3)CS[C@H]12	satisfied
C=C(C)C1CC=C(C)CC1 (stereo unspecified)	satisfied
CCCCC(CC)COS(=O)(=O)O (stereo unspecified)	not satisfied
O=C1NC(=O)[C@H]2[C@@H]1[C@@H]1C=C[C@H]2C1	satisfied

----------
- System: CP247
- Experiment description: qHTS profiling for inhibitors of Plasmodium falciparum proliferation (AID 504749); note: nearly all actives have a fitted effect of over 60% in size
- Run parameters: P. falciparum in erythrocytes, SYBR Green DNA, 72 h; series mostly up to 28.7 µM
Results filed as inconclusive are left out. The source made the active and inactive calls. The call rests on the fitted dose curve; in most records, active means well fitted inhibition curve with a large enough effect; inconclusive means small, poorly fitted or top-dose-only effect; inactive means flat fitted curve, though single readings scatter.

Compound	outcome
CCC(O)c1ccccc1 (configuration not stated)	inactive
CC(C)=CCC/C(C)=C/CC/C(C)=C/CC/C=C(\C)CC/C=C(\C)CCC=C(C)C	inactive
O=P(O)(O)OC[C@H]1O[C@](O)(COP(=O)(O)O)[C@@H](O)[C@@H]1O	inactive
O=c1[nH]c(=O)n([C@H]2C[C@H](O)[C@@H](CO)O2)cc1/C=C/Br	inactive
C=CCN1CCCC1CNC(=O)c1cc(S(N)(=O)=O)cc(OC)c1OC (configuration not stated)	inactive
Cc1c(Cl)cccc1Nc1ncccc1C(=O)O	inactive
COc1ccc(/C=C/C(=O)O)cc1	inactive
CCC(Cc1c(I)cc(I)c(O)c1I)C(=O)O (configuration not stated)	inactive
C/C=C/C=C/C(=O)O	inactive
FC(F)(F)C(F)(F)C(F)(F)C(F)(F)C(F)(F)F	inactive
O=C(/C=C/c1cccc(F)c1)NC1CC1	inactive
CN(C)CCCSc1ccccc1NC(=O)/C=C/c1ccccc1	inactive

----------
- Tested on: CP325
- Experiment description: qHTS profiling for inhibitors of Plasmodium falciparum proliferation (AID 504749); note: nearly all actives have a fitted effect of over 60% in size
- Run parameters: P. falciparum in erythrocytes, SYBR Green DNA, 72 h; series mostly up to 28.7 µM
Inconclusive results are not listed. Activity calls are given as the source filed them. The call rests on the fitted dose curve; in most records, active means well fitted inhibition curve with a large enough effect; inconclusive means small, poorly fitted or top-dose-only effect; inactive means flat fitted curve, though single readings scatter.
Outcome codes: active, inactive

Compound	Assigned label
Cc1cccc(C)c1NC(=O)NC1=CCCN1C	inactive
c1ccc2c(c1)OCC(CN1CCCCC1)O2 (configuration not stated)	inactive
O=C(O)CC/C=C\CC[C@@H]1[C@@H](N2CCCCC2)[C@@H](O)C[C@@H]1OCc1ccc(-c2ccccc2)cc1	inactive
CC(O)CN(C)C (configuration not stated)	inactive
CCOC(=O)Cc1ccc(-c2ccccc2)cc1	inactive
O[C@@H]([C@H](O)[C@H](O)CBr)[C@H](O)CBr	inactive
O=C(O)CCC(=O)c1ccc(-c2ccccc2)cc1	inactive
CCc1ccc(S(=O)(=O)O)cc1	inactive
Cc1cc(C(=O)NCCc2ccc(S(=O)(=O)NC(=O)NN3CCCCCC3)cc2)no1	inactive
COC(=O)CCC[N+](C)(C)C	inactive
CCN(CC)CCOc1ccc2nc(N(C)C)sc2c1	inactive
CC(C)Cc1ccc([C@@H](C)C(=O)NS(C)(=O)=O)cc1	inactive
CCOc1ccc(S(=O)(=O)O)c2cccnc12	inactive
COc1ccc(-c2noc(CC(=O)O)c2-c2ccc(OC)cc2)cc1	inactive
C[C@H](CCCC(C)(C)O)[C@H]1CC[C@H]2[C@@H]3CC=C4C[C@@H](O)CC[C@]4(C)[C@H]3CC[C@]12C	inactive
NCC[C@H](O)C(=O)N[C@@H]1C[C@H](N)[C@@H](O[C@H]2O[C@H](CN)[C@@H](O)[C@H](O)[C@H]2O)[C@H](O)[C@H]1O[C@H]1O[C@H](CO)[C@@H](O)[C@H](N)[C@H]1O	inactive
CN(C)C(=O)CCSC(SCCC(=O)O)c1cccc(/C=C/c2ccc3ccc(Cl)cc3n2)c1 (configuration not stated)	inactive
CC(=O)Oc1cccc2c1C(=O)c1c(OC(C)=O)cc(C(=O)O)cc1C2=O	inactive
CC(C)(C)c1ccc2c(S(=O)(=O)O)c(C(C)(C)C)ccc2c1	inactive
CO	inactive
CC1=C(/C=C/C(C)=C/C=C/C(C)=C/C(=O)Oc2c(C)c(C)c3c(c2C)CC[C@@](C)(CCC[C@H](C)CCC[C@H](C)CCCC(C)C)O3)C(C)(C)CCC1	inactive
CC1=CC(=C(c2ccc(N)cc2)c2ccc(N)cc2)C=CC1=N	active
